System: biotinyl-Val-oxazolone
test_details: self-aminoacylation, catalytic enhancement (BVO) (fold over background); higher = more active; k-Seq, kA / k0A0; sequences stand for … in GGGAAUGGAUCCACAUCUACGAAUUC…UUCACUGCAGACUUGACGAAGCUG
Variants at the floor of the assay were thinned out.

chain: CUACUUCAACCAAGCGGUCUG [Fam1A.1 aminoacylation ribozyme variant]
self-aminoacylation: 0.954
//
chain: CUACUGCAAACAAUCGGCCUG [Fam1A.1 aminoacylation ribozyme variant]
self-aminoacylation: 2.27
//
chain: AAGUGUGCUAAUAAUCGCAAG [Fam3.1 aminoacylation ribozyme variant]
self-aminoacylation: 1.29
//
chain: AAUCACCUAGGACAUCGGGUG [Fam2.2 aminoacylation ribozyme variant]
self-aminoacylation: 3.32
//
chain: AAGUUUGUUAAUAGUCGUAAG [Fam3.1 aminoacylation ribozyme variant]
self-aminoacylation: 0.808
//
chain: AAGUUUGCUAUUACUCGCAAG [Fam3.1 aminoacylation ribozyme variant]
self-aminoacylation: 0.868
//
chain: CUACUUCAAACAAACGGUUUG [Fam1A.1 aminoacylation ribozyme variant]
self-aminoacylation: 0.796
//
chain: CUUCUUCAAACCAUCGGUCUG [Fam1A.1 aminoacylation ribozyme variant]
self-aminoacylation: 0.775

====

System: biotinyl-Leu-oxazolone
test_details: self-aminoacylation, catalytic enhancement (BLO) (fold over background); higher = more active; k-Seq, kA / k0A0; sequences stand for … in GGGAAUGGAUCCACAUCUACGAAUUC…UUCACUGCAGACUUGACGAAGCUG
Variants at the floor of the assay were thinned out.
Binary classification by self-aminoacylation, with 0.9 as an inclusive lower bound for met; all other cases are not met.

chain: CCACAUUUCAAGCAUUCGGUC [Fam1B.1 aminoacylation ribozyme variant]
target_of_assay: biotinyl-Leu-oxazolone
assigned_label: met

chain: CUACUUCAGUCAAUCGGUCUG [Fam1A.1 aminoacylation ribozyme variant]
target_of_assay: biotinyl-Leu-oxazolone
assigned_label: not met

chain: AUUCACCUAGCUCACCGGGUG [Fam2.2 aminoacylation ribozyme variant]
target_of_assay: biotinyl-Leu-oxazolone
assigned_label: met

chain: CUACAUCGAACAAUCGGUCUG [Fam1A.1 aminoacylation ribozyme variant]
target_of_assay: biotinyl-Leu-oxazolone
assigned_label: met

chain: CUACAUCAAACAAUCGGUCUA [Fam1A.1 aminoacylation ribozyme variant]
target_of_assay: biotinyl-Leu-oxazolone
assigned_label: not met

chain: CCACACGUCAAGCAAUCAGUC [Fam1B.1 aminoacylation ribozyme variant]
target_of_assay: biotinyl-Leu-oxazolone
assigned_label: not met

chain: CCACACUUCAAGCAAUCCGGC [Fam1B.1 aminoacylation ribozyme variant]
target_of_assay: biotinyl-Leu-oxazolone
assigned_label: met

====

Test system: biotinyl-Ile-oxazolone
test_details: self-aminoacylation, catalytic enhancement (BIO) (fold over background); higher = more active; k-Seq, kA / k0A0; sequences stand for … in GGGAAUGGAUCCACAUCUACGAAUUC…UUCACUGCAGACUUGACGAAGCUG
Variants at the floor of the assay were thinned out.

chain: AUUCACCUAGGUCAUCGGGGC [Fam2.2 aminoacylation ribozyme variant]
self-aminoacylation: 4.85

chain: AUUACCCUGGUCACCGAGUUA [Fam2.1 aminoacylation ribozyme variant]
self-aminoacylation: 1.64

chain: AUCCAACUAGGUCAUCGGGUG [Fam2.2 aminoacylation ribozyme variant]
self-aminoacylation: 5.82

chain: AUUCACCUAGGUCAUCUAGUG [Fam2.2 aminoacylation ribozyme variant]
self-aminoacylation: 2.92

chain: CCACACAUCAAGCAAUAGGUC [Fam1B.1 aminoacylation ribozyme variant]
self-aminoacylation: 0.864

chain: AUUCACAUAGGUCAUCGGGAG [Fam2.2 aminoacylation ribozyme variant]
self-aminoacylation: 1

chain: AAUUGUGCUAAUAGUCGCAAG [Fam3.1 aminoacylation ribozyme variant]
self-aminoacylation: 1.93

chain: AUUUCCCUAGUCAUCGAGUGA [Fam2.1 aminoacylation ribozyme variant]
self-aminoacylation: 3.46

chain: AUUACCCUGGUCCUCGAGUAA [Fam2.1 aminoacylation ribozyme variant]
self-aminoacylation: 1.35

chain: AAGUGUGCUAAUUGUCGCAAG [Fam3.1 aminoacylation ribozyme variant]
self-aminoacylation: 1.5

chain: AUUGCCCUGGUCAUCGACUGA [Fam2.1 aminoacylation ribozyme variant]
self-aminoacylation: 0.899

chain: CCGCACUUCGAGCAAUCGGUC [Fam1B.1 aminoacylation ribozyme variant]
self-aminoacylation: 1.22

chain: AUUCUCCUAGGUCAUCUGGUG [Fam2.2 aminoacylation ribozyme variant]
self-aminoacylation: 3.03

chain: ACGUGUGCUAAUAGUCGCAAG [Fam3.1 aminoacylation ribozyme variant]
self-aminoacylation: 1.6

chain: CUACUUCAACCAAUCGGUCCG [Fam1A.1 aminoacylation ribozyme variant]
self-aminoacylation: 0.867

chain: AUUACCCUGGUGAUCGAGUGA [Fam2.1 aminoacylation ribozyme variant]
self-aminoacylation: 2.56

chain: CCACACGUCAAGCAAUCGGAC [Fam1B.1 aminoacylation ribozyme variant]
self-aminoacylation: 1.53

chain: AUUCGCCUAGUUCAUCGGGUG [Fam2.2 aminoacylation ribozyme variant]
self-aminoacylation: 2.26

====

System: biotinyl-Leu-oxazolone
test_details: self-aminoacylation, catalytic enhancement (BLO) (fold over background); higher = more active; k-Seq, kA / k0A0; sequences stand for … in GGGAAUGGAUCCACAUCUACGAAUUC…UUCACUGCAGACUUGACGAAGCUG
This sample holds only a part of the variants without activity.

chain: CCACACUUCAAGCAAUCGGCA [Fam1B.1 aminoacylation ribozyme variant]
self-aminoacylation: 1.59
//
chain: CCACACAUCAAGCAAUAGGUC [Fam1B.1 aminoacylation ribozyme variant]
self-aminoacylation: 0.574
//
chain: CUACUUCAAACAAUCCGUCUA [Fam1A.1 aminoacylation ribozyme variant]
self-aminoacylation: 0.651
//
chain: AAGUCUGCUAAUAGUGGCAAG [Fam3.1 aminoacylation ribozyme variant]
self-aminoacylation: 0.866
//
chain: AUUACCCUGGUCACCAAGUGA [Fam2.1 aminoacylation ribozyme variant]
self-aminoacylation: 6.54
//
chain: AUUUACCUACGUCAUCGGGUG [Fam2.2 aminoacylation ribozyme variant]
self-aminoacylation: 6.25
//
chain: CUUCACCUAGCUCAUCGGGUG [Fam2.2 aminoacylation ribozyme variant]
self-aminoacylation: 2.43
//
chain: CUACUUCAAAGAAUCGGUGUG [Fam1A.1 aminoacylation ribozyme variant]
self-aminoacylation: 1.28
//
chain: AAGUUUGCUAAGAGUCGCAUG [Fam3.1 aminoacylation ribozyme variant]
self-aminoacylation: 1.03
//
chain: AUUCACCUACGUCAUCCGGUG [Fam2.2 aminoacylation ribozyme variant]
self-aminoacylation: 8.48
//
chain: AAGUCUGCUAAUAGUCCCAAG [Fam3.1 aminoacylation ribozyme variant]
self-aminoacylation: 1.15
//
chain: CUACUCCAAACAAUUGGUCUG [Fam1A.1 aminoacylation ribozyme variant]
self-aminoacylation: 1.02
//
chain: AAGUUUGCUAAUAGUCGCAUC [Fam3.1 aminoacylation ribozyme variant]
self-aminoacylation: 0.61
//
chain: AUUAGCCUGGGCAUCGAGUGA [Fam2.1 aminoacylation ribozyme variant]
self-aminoacylation: 8.51
//
chain: AAGGUUGCUAGUAGUCGCAAG [Fam3.1 aminoacylation ribozyme variant]
self-aminoacylation: 0.971
//
chain: GCACACUGCAAGCAAUCGGUC [Fam1B.1 aminoacylation ribozyme variant]
self-aminoacylation: 1.87
//
chain: AGGUUUGCUAAUAGUCGCAGG [Fam3.1 aminoacylation ribozyme variant]
self-aminoacylation: 1.7
//
chain: CCACACUACAUGCAAUCGGUC [Fam1B.1 aminoacylation ribozyme variant]
self-aminoacylation: 0.762
//
chain: CUACUUCGUACAAUCGGUCUG [Fam1A.1 aminoacylation ribozyme variant]
self-aminoacylation: 0.596
//
chain: CUACUACAAACAAUGGGUCUG [Fam1A.1 aminoacylation ribozyme variant]
self-aminoacylation: 1.15
//
chain: AUUCACCUAGGUCCACGGGUG [Fam2.2 aminoacylation ribozyme variant]
self-aminoacylation: 9.94
//
chain: CUAGUUCAAAUAAUCGGUCUG [Fam1A.1 aminoacylation ribozyme variant]
self-aminoacylation: 0.879
//
chain: UCACACUUCAAGCAAUCCGUC [Fam1B.1 aminoacylation ribozyme variant]
self-aminoacylation: 0.591
//
chain: CUACUUCAAACAAGCGCUCUG [Fam1A.1 aminoacylation ribozyme variant]
self-aminoacylation: 0.852
//
chain: AUUCAACUAGGUCAUUGGGUG [Fam2.2 aminoacylation ribozyme variant]
self-aminoacylation: 4.71
//
chain: AUUCACCUCGUUCAUCGGGUG [Fam2.2 aminoacylation ribozyme variant]
self-aminoacylation: 5.48
//
chain: CCUCACUUUAAGCAAUCGGUC [Fam1B.1 aminoacylation ribozyme variant]
self-aminoacylation: 0.619
//
chain: CUACUUCAAACAAACGGUCUU [Fam1A.1 aminoacylation ribozyme variant]
self-aminoacylation: 0.879
//
chain: AUUCACCCAGGUUAUCGGGUG [Fam2.2 aminoacylation ribozyme variant]
self-aminoacylation: 4.62
//
chain: AUUUAACUAGGUCAUCGGGUG [Fam2.2 aminoacylation ribozyme variant]
self-aminoacylation: 5.03
//
chain: AAUUUUGCUUAUAGUCGCAAG [Fam3.1 aminoacylation ribozyme variant]
self-aminoacylation: 2.29
//
chain: AAGUUUCCUAAUAGUCGAAAG [Fam3.1 aminoacylation ribozyme variant]
self-aminoacylation: 1.44
//
chain: CCACUCCAAACAAUCGGUCUG [Fam1A.1 aminoacylation ribozyme variant]
self-aminoacylation: 1.09
//
chain: AUUCACGUAGGACAUCGGGUG [Fam2.2 aminoacylation ribozyme variant]
self-aminoacylation: 5.61
//
chain: ACACACUUCAAGCCAUCGGUC [Fam1B.1 aminoacylation ribozyme variant]
self-aminoacylation: 2.11
